- Assayed Target: UniProt:P21802
- Method Summary: Biochemical FGFR2 Caliper assay
Result Type: IC50

C#Cc1nc2cc(-c3c(-c4ccc(Oc5nccc(C)n5)c(F)c4)c4c(N)ncnc4n3C)c(F)cc2n1C; < 100 nM
C=CC(=O)N1CC[C@H](c2c(C3=CC[C@H](C(=O)N4CCCC4)CC3)c3c(N)ncnc3n2C)C1 (single isomer, unassigned); 1000 to 100000 nM
C=C(C)C(=O)Nc1ccc(-c2cn3ncnc(N)c3c2-c2ccc(S(=O)(=O)N3CCCC3)cc2)cc1; 250 to 1000 nM
C=C(C)C(=O)Nc1ccc(-c2c(-c3ccc4c(c3)OC[C@@H]4c3cccc(C)n3)c3c(N)ncnc3n2C)cc1 (single isomer, unassigned); 100 to 250 nM
C=CC(=O)N1CCC(c2c(-c3ccc(N4CCCC4=O)nc3)c3c(N)ncnc3n2C)C1 (stereo not drawn); 250 to 1000 nM

For each of the items listed, what is its IC50?
1. C=C(C)C(=O)Nc1ccc(-c2cn3ncnc(N)c3c2-c2ccc(C(=O)NC3CCOC3)cc2)cc1 (stereo not drawn)
2. C#Cc1cc(OC)c(-c2c(-c3ccc(Oc4nccc(C)n4)c(F)c3)c3c(N)ncnc3n2C)cn1
3. C#Cc1cc(OC)c(-c2c(-c3ccc(Oc4nccc(C)n4)c(F)c3)c3c(C)ncnc3n2C)c(C)n1 (atropisomer, axis not shown) [Example 1460]
4. C=Cc1ncc(-c2c(-c3ccc(Oc4nccc(C)n4)cc3)c3c(N)ncnc3n2C)c(C)n1
5. C#Cc1cnc2cc(-c3c(-c4ccc(Oc5nccc(C)n5)c(F)c4)c4c(N)ncnc4n3C)ccc2n1
6. C=C(C)C(=O)Nc1ccc(-c2c(C3=CC[C@H](C(=O)N4CCCC4)C[C@H]3C)c3c(N)ncnc3n2C)cc1 (single isomer, unassigned)
7. C=C(C)C(=O)Nc1ccc(-c2c(-c3ccc(C(=O)N[C@H]4C[C@@H](F)C4)c(OC4CC4)c3)c3c(N)ncnc3n2C)cc1
8. C#Cc1ncc(-c2c(-c3ccc(C(=O)N4CCCC4)cc3)c3c(N)ncnc3n2C)cn1

1: 250 to 1000 nM; 2: < 100 nM; 3: 1000 to 100000 nM; 4: < 100 nM; 5: < 100 nM; 6: 1000 to 100000 nM; 7: 1000 to 100000 nM; 8: 250 to 1000 nM

For each of the items listed, what is its IC50?
1. C=CC(=O)N[C@@H]1CC=C(c2c(-c3ccc(Oc4nccc(C)n4)c(F)c3)c3c(N)ncnc3n2C)CC1
2. C=C(C)C(=O)Nc1ccc(-c2c(-n3ccc(C(=O)N4CCCC4)cc3=O)c3c(N)ncnc3n2C)cc1

1: 250 to 1000 nM; 2: < 100 nM

---

- Assayed Target: FGFR2 (Homo sapiens (Human), UniProt P21802)
- Sequence (P21802 22-821): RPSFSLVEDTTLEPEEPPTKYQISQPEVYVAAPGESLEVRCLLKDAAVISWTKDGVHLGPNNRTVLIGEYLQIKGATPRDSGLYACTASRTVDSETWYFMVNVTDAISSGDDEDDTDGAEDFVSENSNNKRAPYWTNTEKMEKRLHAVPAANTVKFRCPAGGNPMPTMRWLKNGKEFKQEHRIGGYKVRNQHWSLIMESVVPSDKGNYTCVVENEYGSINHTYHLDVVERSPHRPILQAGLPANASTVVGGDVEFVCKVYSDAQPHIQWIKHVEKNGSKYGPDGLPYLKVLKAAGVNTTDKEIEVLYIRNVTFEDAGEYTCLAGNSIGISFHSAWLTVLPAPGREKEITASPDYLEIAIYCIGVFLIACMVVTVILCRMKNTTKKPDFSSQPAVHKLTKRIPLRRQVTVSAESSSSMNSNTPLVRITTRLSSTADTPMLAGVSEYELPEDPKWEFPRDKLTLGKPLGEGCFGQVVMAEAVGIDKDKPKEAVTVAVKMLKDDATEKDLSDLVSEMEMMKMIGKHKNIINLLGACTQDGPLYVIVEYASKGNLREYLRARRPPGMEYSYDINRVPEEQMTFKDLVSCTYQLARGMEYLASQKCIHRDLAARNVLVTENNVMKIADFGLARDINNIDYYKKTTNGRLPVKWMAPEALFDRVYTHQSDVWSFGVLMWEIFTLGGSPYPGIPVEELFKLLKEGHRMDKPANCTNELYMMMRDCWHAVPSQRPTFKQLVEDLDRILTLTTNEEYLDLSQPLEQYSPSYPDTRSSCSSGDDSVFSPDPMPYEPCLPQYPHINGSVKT
- Method Summary: Biochemical FGFR2 Caliper assay
pIC50: −log10 of the molar value.
For each of the molecules below, state its pIC50.

// below: answered molecules
C=CC(=O)N1CC[C@H](c2c(-c3ccc(Oc4cccc(C)n4)cc3)c3c(N)ncnc3n2C)[C@H]1C (single isomer, unassigned) [Example 941]; 6.00 to 6.60
C=C(C)C(=O)Nc1ccc(-c2c(-c3ccc4nc[nH]c4c3)c3c(N)ncnc3n2C)cc1 [Example 1294]; 6.00 to 6.60
C=C(C)C(=O)Nc1cc(C)c(-c2c(-c3ccc(Oc4nccc(C)n4)cc3)c3c(N)ncnc3n2C)c(F)c1 [Example 1097]; > 7.00
C=C(C)C(=O)Nc1ccc(-c2[nH]c3ncnc(N)c3c2-c2ccc(S(=O)(=O)C3CCCC3)cc2)cc1 [Example 818]; 6.00 to 6.60
C=C(C)C(=O)Nc1ccc(-c2c(C3=CC[C@H](C(=O)N4CC5CC4C5)CC3)c3c(N)ncnc3n2C)cc1 [Example 997]; 4.00 to 6.00

For each of the items listed, what is its pIC50?
1. C=CC(=O)N1CC(c2c(-c3ccc(Oc4cccc(C)n4)cc3)c3c(N)ncnc3n2C)C[C@H]1C (stereo partly drawn) [Example 847]
2. C=C(C)C(=O)Nc1ccc(-c2c(-c3ccc(Oc4nccc(C)n4)c(F)c3)c3c(C)ncnc3n2C)c(C)c1 [Example 1126]
3. C#Cc1ccc2ccc(-c3c(-c4ccc(Oc5nccc(C)n5)c(F)c4)c4c(N)ncnc4n3C)cc2n1 [Example 1412]
4. C=CC(=O)Nc1ccc(-c2c(-c3ccc(C(=O)NCC(C)C)cc3)c3c(N)ncnc3n2C)cc1 [Example 990]
5. C=CC(=O)N[C@@H]1C[C@@H]1c1c(-c2ccc(C(=O)N3CCCC3)cc2)c2c(N)ncnc2n1C (single isomer, unassigned) [Example 973]

["6.00 to 6.60", "> 7.00", "6.00 to 6.60", "> 7.00", "6.00 to 6.60"]

For each of the items listed, what is its pIC50?
1. C#Cc1cc(C)c(-c2c(-c3cnn(C)c3)c3c(N)ncnc3n2C)cn1 [Example 1144]
2. C#Cc1cc(C)c(-c2c(C3=CC[C@H](C(=O)N4CCC[C@H]4C#N)CC3)c3c(C)ncnc3n2C)c(C)n1 (atropisomer, axis not shown) [Example 1463]
3. C#C[C@@H]1CCCN1C(=O)[C@@H]1CC=C(c2c(-c3ccc(NC(=O)C(=C)C)cc3)n(C)c3ncnc(N)c23)CC1 (single isomer, unassigned) [Example 951]
4. C=C(C)C(=O)Nc1ccc(-c2cn3ncnc(N)c3c2-c2ccc(C(=O)NCC(F)(F)F)cc2)cc1 [Example 823]
5. C=CC(=O)N1CC=C(c2cccc(-c3c(-c4ccc(Oc5cccc(C)n5)cc4)c4c(N)ncnc4n3C)c2)C1 [Example 1080]

1. 6.60 to 7.00
2. 6.60 to 7.00
3. 6.00 to 6.60
4. 6.60 to 7.00
5. 4.00 to 6.00

For each of the items listed, what is its pIC50?
1. COCC#Cc1cc(C)c(-c2c(-c3ccc(Oc4nccc(C)n4)c(F)c3)c3c(C)ncnc3n2C)cn1 [Example 1374]
2. C=CC(=O)Nc1ccc(-c2c(-c3ccc(Oc4cccc(C)n4)cc3)c3c(N)ncnc3n2C)cc1 [Example 1050]
3. C=C(C)C(=O)Nc1ccc(-c2cn3ncnc(N)c3c2-c2ccc(C(=O)N3CC4CC3C4)cc2)cc1 [Example 840]
4. C#Cc1cc(OC)c(-c2c(C3=CC[C@@H](C(=O)N4CCC[C@H]4C)CC3)c3c(N)ncnc3n2C)cn1 [Example 1354]
5. C=C(C)C(=O)Nc1ccc(-c2c(-c3ccc(-c4coc(C)n4)cc3)c3c(N)ncnc3n2C)cc1 [Example 1224]
6. C=C(C)C(=O)Nc1cc(-c2c(-c3ccc(Oc4nccc(C)n4)cc3)c3c(N)ncnc3n2C)n(C)n1 [Example 1065]
7. C=C(C)C(=O)Nc1ccc(-c2nn3ccnc(N)c3c2-c2ccc(C(=O)N3CCCC3)cc2)cc1 [Example 862]

1. 6.00 to 6.60
2. 6.00 to 6.60
3. > 7.00
4. > 7.00
5. 6.00 to 6.60
6. 6.00 to 6.60
7. 4.00 to 6.00

For each of the items listed, what is its pIC50?
1. C=C(C)C(=O)Nc1ccc(-c2[nH]c3ncnc(N)c3c2-c2ccc(Oc3cccc(C)n3)cc2)nc1 [Example 857]
2. C=C(C)C(=O)Nc1ccc(-c2c(C3=CC[C@@](C)(C(=O)N4CCCC4)CC3)c3c(N)ncnc3n2C)cc1 [Example 1009]
3. C=C(C)C(=O)Nc1ccc(-c2c(C3=CCN(C(=O)C4CCCC4)CC3)c3c(N)ncnc3n2C)cc1 [Example 922]
4. C=C(C)C(=O)Nc1ccc(-c2c(C3=CC[C@@H](C(=O)N4CCCC45COC5)CC3)c3c(N)ncnc3n2C)c(C)c1 (single isomer, unassigned) [Example 1033]
5. C=C(C)C(=O)Nc1ccc(-c2c(-c3ccc4cc[nH]c4c3)c3c(N)ncnc3n2C)cc1 [Example 1297]

4.00 to 6.00
4.00 to 6.00
6.00 to 6.60
> 7.00
6.00 to 6.60

Where do these numbers come from? They come from patent US11780845B2.
